The reported measurements were obtained from patent US20240376185A1.

Entries and their EC resulting in A450 0.4 values follow.
Molecular target: tetanus neurotoxin (TeNT), authentic tetanus holotoxin (Clostridium tetani, UniProt P04958 2-1315)
Sequence (P04958 2-457 limits assumed, chain 1 of 2): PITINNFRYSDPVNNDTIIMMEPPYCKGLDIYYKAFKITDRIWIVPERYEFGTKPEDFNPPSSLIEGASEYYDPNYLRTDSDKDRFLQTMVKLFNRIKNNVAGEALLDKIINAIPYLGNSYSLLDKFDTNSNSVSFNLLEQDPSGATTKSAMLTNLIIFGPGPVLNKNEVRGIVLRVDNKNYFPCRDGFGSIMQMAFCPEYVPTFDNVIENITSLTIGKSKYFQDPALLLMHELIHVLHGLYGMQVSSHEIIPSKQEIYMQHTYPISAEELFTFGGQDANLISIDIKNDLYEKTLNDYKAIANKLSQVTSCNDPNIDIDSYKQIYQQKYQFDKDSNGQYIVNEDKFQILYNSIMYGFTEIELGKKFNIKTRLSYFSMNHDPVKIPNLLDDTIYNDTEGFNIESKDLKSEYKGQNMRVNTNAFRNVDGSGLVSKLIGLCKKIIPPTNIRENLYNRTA
Sequence (P04958 458-1315 limits assumed, chain 2 of 2): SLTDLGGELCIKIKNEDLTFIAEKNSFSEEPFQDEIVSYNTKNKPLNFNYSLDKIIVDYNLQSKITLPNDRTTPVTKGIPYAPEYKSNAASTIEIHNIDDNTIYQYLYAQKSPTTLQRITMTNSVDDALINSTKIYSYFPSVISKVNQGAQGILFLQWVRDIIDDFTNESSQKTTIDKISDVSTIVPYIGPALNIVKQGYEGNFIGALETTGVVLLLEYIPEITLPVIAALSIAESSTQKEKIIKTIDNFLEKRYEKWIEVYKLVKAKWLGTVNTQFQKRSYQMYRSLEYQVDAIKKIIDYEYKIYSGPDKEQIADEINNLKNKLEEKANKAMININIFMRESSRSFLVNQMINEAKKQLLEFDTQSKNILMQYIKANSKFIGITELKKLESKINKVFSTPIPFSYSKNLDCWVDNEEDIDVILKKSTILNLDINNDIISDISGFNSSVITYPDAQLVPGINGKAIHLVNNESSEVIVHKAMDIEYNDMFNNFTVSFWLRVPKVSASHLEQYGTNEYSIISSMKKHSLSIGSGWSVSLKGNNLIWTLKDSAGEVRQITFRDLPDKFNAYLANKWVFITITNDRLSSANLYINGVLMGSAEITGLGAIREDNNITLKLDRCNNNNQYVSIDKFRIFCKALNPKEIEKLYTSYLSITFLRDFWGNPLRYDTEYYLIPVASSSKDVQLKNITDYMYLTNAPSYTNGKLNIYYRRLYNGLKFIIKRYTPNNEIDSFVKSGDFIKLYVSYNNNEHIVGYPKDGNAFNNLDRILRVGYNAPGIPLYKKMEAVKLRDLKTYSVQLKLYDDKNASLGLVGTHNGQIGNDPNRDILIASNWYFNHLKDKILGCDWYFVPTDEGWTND
Experiment: ELISA, directly coated TeNT, biotinylated binder

SVT34L (VHH) VHH: QVQLQESGGGLVQPGGSLRLSCAASGRTISSYAMGWFRQAPGKQREFVAAISRSGGNTYYTDSVKGRFIISRDNAKNTLYLQMNNLKPEETAVYYCAADPNLMYESKWKYRALEAWGQGTLVTVSS	1.7 ng/mL

Below: the item to evaluate.
Request: Record request: EC resulting in A450 0.4 value, item SVT15L (VHH) VHH: QVQLQESGGGLVQTGGSLRLSCRASGRAFANYHFGWFRQAPGKDREFVASISWKGGSTYYANFALGRFTSSVDRAESSVYLQMSGLTPEDTATYYCAAHDGGDWNYHTGMDYWGKGILVTVSS
Result: 2.8 ng/mL
